target: GPR40 (Homo sapiens); test: Cell-based aequorin assay (CHO cells stably expressing GPR40 and aequorin); set-up: expressed in transfected cells; host or cells: CHO cells stably transfected with GPR40 and aequorin; conditions: activation of human GPR40, CHO cells, 0.01% HSA
Sequence (O14842 whole entry): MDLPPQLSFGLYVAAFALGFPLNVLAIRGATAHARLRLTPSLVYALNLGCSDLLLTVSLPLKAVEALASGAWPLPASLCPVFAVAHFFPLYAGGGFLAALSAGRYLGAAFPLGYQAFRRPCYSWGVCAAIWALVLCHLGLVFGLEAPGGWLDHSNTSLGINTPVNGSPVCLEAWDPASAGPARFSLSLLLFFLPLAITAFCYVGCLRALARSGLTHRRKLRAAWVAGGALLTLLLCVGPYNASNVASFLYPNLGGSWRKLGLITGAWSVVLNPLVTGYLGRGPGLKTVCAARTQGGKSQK
readout type: EC50

>>> df
                                   molecule            result
0  CCC(CC(=O)O)c1cc(OCc2ccc(-c3cc(OC)ccc3F)c(C(C)(C)C)c2)ccc1F (single isomer, unassigned)  1000 to 10000 nM
1  CCC(CC(=O)O)c1cccc(OCc2ccc(-c3cccc(OC)c3)c(C3CCCC3(C)C)c2)c1 (single isomer, unassigned)      10 to 100 nM
2  COc1ccc(F)c(-c2ccc(COc3cccc([C@@H](CC(=O)O)C4CC4)c3)cc2C2=CCCC2)c1 (single isomer, unassigned)    100 to 1000 nM

Source of measurements: patent US8030354B2
